Reference source for all entries: PubChem BioAssay (NCATS)

# Target Desc: Cellular tumor antigen p53 (Homo sapiens)
# Assay Method Text: Primary qHTS for small molecule compounds that upregulate eGFP-tagged delta133p53alpha (in N-terminal) cells. (AID 2060322);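 further: cells pre-induced with doxycycline then dosed without doxycycline; 0% = DMSO vehicle and 100% = reference activator; nearly all actives have a fitted effect of over 75% in size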
# Experimental Parameters: NCI-H358 eGFP-delta133p53alpha fluorescence, 24 h; stronger effect = higher value
Results filed as inconclusive are left out. The source made the active and inactive calls. The call rests on the fitted dose curve; in most records, active means well fitted activation curve with a large enough effect; inconclusive means small, poorly fitted or top-dose-only effect; inactive means no such curve, though single readings can be large or run the other way.
Readout Label: activation

Example results:
| Molecule | Reported Measurement |
| --- | --- |
| CC(C)C[C@H](CC(=O)NO)C(=O)N[C@@H](Cc1ccc2ccccc2c1)C(=O)N[C@@H](C)C(=O)NCCN | -11.7% (inactive) |
| CN(C)C(=N)N=C(N)N | 2.2% (inactive) |
| C=C[C@@](C)(CCC=C(C)C)O[C@@H]1O[C@H](CO[C@@H]2OC[C@H](O)[C@H](O)[C@H]2O)[C@@H](O)[C@H](O)[C@H]1O | -11.5% (inactive) |
| CCCC(CCC)C(=O)NCc1ccc2c(cnn2-c2ccccc2OC)c1 | -5.25% (inactive) |
| CC(C)(Cc1nc(-c2ccc(O)cn2)no1)C(=O)NC1=C(C(=O)O)CCCC1 | 2.86% (inactive) |

molecule CC(=O)O[C@@H]1[C@@H](OC(=O)/C=C/c2ccccc2)[C@H](C)O[C@@H](O[C@H]2[C@@H]3C=CO[C@@H](O[C@@H]4O[C@H](CO)[C@@H](O)[C@H](O)[C@H]4O)[C@@H]3[C@@]3(CO)O[C@@H]23)[C@@H]1OC(C)=O , activation observed: -3.82% (inactive)

Noted for O=S1(=O)c2cccc3cccc(c23)N1CCCN1CCN(c2ccc(F)cc2)CC1 : its activation reads 8.47% (inactive)

---

# Target Desc: Retinaldehyde dehydrogenase 3 (Homo sapiens)
# Assay Method Text: qHTS for Inhibitors of the Aldehyde Dehydrogenase Family (ALDH1A3) Primary screen (AID 2061315);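 further: plate controls were DMSO vehicle for no effect and reference inhibitor for full effect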
# Experimental Parameters: ALDH inhibition qHTS; series mostly up to 56 µM
Records with an inconclusive call do not appear. Activity calls are given as the source filed them. Calls follow the shape of the dose curve; as a rule, active = well fitted inhibition curve with a large enough effect; inconclusive = small, poorly fitted or top-dose-only effect; inactive = no such curve, though single readings can be large or run the other way.
Readout Label: activity change, negative = inhibition

| Compound | Target Desc | activity change, negative = inhibition |
| --- | --- | --- |
| N#Cc1cccc(-c2nc(-c3cccnc3)no2)c1 | Retinaldehyde dehydrogenase 3 (Homo sapiens) | inactive |
| CC(C)(C)C(=O)CN1C(=O)[C@H](NC(=O)Nc2cccc(C(=O)O)c2)CN(C2CCCCC2)c2ccccc21 | Retinaldehyde dehydrogenase 3 (Homo sapiens) | inactive |
| C=C1CCC2C(C)(C)CC(=O)CC2(C)C1CCC(C)CCO (centres undefined) | Retinaldehyde dehydrogenase 3 (Homo sapiens) | inactive |
| CC(=O)C1=CCC2C3CC=C4CC(O)CC(O)C4(C)C3C(O)CC12C (centres undefined) | Retinaldehyde dehydrogenase 3 (Homo sapiens) | inactive |

Per the record, COc1cc2c(cc1OC)N1C(=O)C[C@]34C=CCN5CC[C@@H]2[C@@H](CC3)[C@]514 has activity change, negative = inhibition of inactive

Query CS(=O)(=O)c1ccc(-n2nc(C(F)(F)F)cc2-c2ccc(F)cc2)cc1 yields activity change, negative = inhibition of inactive

The compound identified as O=C(/C=C/c1ccc(O)cc1)OCC1=C[C@@H](O)[C@@H]2C=CO[C@@H](O[C@@H]3O[C@H](CO)[C@@H](O)[C@H](O)[C@H]3O)[C@H]12 registered its activity change, negative = inhibition at inactive

Please fill in: activity change, negative = inhibition reported for CCNC1(C(N)=O)CCN(c2ncnc3c2nc(-c2ccccc2Cl)n3-c2ccc(Cl)cc2)CC1 = inactive

Entry O=c1cc(CN2CCOCC2)occ1OCCCCCSc1ccnc2cc(C(F)(F)F)ccc12 , activity change, negative = inhibition reported as inactive

Item: Nc1nc(O)c(C2=C3C(=Nc4ccccc43)C(=O)NCC2)[nH]1 | activity change, negative = inhibition: inactive

---

Property: viability; scope: individual molecules
# Assay Method Text: BET inhibitor-based combinations targeting novel dependencies in MECOM-rearranged (r) AML: SET-2 cell line (AID 2202231);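 further: plate controls were DMSO treated cells for no effect and wells without cells for full effect; nearly all actives have a fitted effect of over 35% in size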
# Experimental Parameters: SET-2 AML cells viability, CellTiter-Glo luminescence, 48 h; stronger effect = lower value, concentration not given here
Records with an inconclusive call do not appear.
Express the result in % but write the number alone.

| Molecule | Reported Measurement |
| --- | --- |
| CCN(CC)CCCC(C)Nc1ccnc2cc(Cl)ccc12 (stereo unspecified) | 102 |
| Cc1ccn(-c2ccc(-c3ncco3)cc2)c(=O)c1-c1ccc2nc(N)ncc2c1 | 114 |
| CCN1CCCC1CNC(=O)c1cc(S(=O)(=O)CC)c(N)cc1OC (stereo unspecified) | 122 |

Reported viability for CN1C(C(=O)Nc2ccccn2)=C(O)c2ccccc2S1(=O)=O was 105

The recorded viability for Cn1cc(-c2ccc3nnc(C(F)(F)c4ccc5ncccc5c4)n3n2)cn1 is 106

Data point: Nc1nc2c(ncn2COCCO)c(=O)[nH]1 ; viability = 125

---

# Target Desc: Aldehyde dehydrogenase 1A1 (Homo sapiens)
# Assay Method Text: qHTS for Inhibitors of the Aldehyde Dehydrogenase Family (ALDH1A1) Confirmatory screens (AID 2061316); further: nearly all actives have a fitted effect of over 65% in size
# Experimental Parameters: ALDH inhibition qHTS; series mostly up to 47.3 µM
Inconclusive results are not listed. Activity calls are given as the source filed them. Calls come from the whole dose curve; as a rule, active = well fitted inhibition curve with a large enough effect; inconclusive = small, poorly fitted or top-dose-only effect; inactive = no such curve, though single readings can be large or run the other way.
The reply should be one of these categories: YES for active, NO for inactive

Some entries whose results are on file:
| Compound | Category |
| --- | --- |
| N#Cc1cccc(N2CCN(Cc3ccc(F)c(Cl)c3F)CC2)n1 | YES |
| CC(C)N1CCc2c(sc(NC(=O)C(F)(F)F)c2-c2nc3ccccc3s2)C1 | YES |
| CCC[C@H](N[C@@H](C)C(=O)N1[C@H](C(=O)O)C[C@@H]2CCCC[C@@H]21)C(=O)O | NO |
| S=C(Nc1cc(Cl)ccn1)N1CCN(c2ccc3ccccc3n2)CC1 | YES |
| Cc1cn[nH]c1 | NO |
| Cn1c(=O)c2[nH]c(-c3ccc(S(=O)(=O)O)cc3)nc2n(C)c1=O | NO |
| Cc1ccc(C(=O)NC2CCN(Cc3cccc(-c4cccc(C)c4)c3)CC2)cc1 | NO |
| Cc1cc(-c2nnc3n2CCCCC3)c(C)n1-c1ccc(Br)cc1 | YES |

Prompt: Dear colleague, could you share the recorded outcome for O=C(O)CN(CCOCCOCCN(CC(=O)O)CC(=O)O)CC(=O)O when you have a moment?
Response: NO

Prompt: What was the test verdict on O=c1[nH]c(CN2CCOCC2)nc2sc3c(c12)CCC3 ?
Response: NO

Prompt: Query: recorded result category for O=C1Nc2ccccc2/C1=C\c1ccc(C(=O)O)cc1 in this test
Response: NO

Prompt: What was the test verdict on Cc1cccc(OC2=NS(=O)(=O)c3ccccc32)c1 ?
Response: NO

Prompt: // return assay outcome for N#CNC(=O)c1ccc(-n2cccc2/C=C2\NC(=O)N(CC(=O)Nc3cccc(F)c3)C2=O)cc1
Response: NO

Prompt: Test call, this compound: CC1=C(C(=O)OC2CCCCC2)C(c2ccc([N+](=O)[O-])cc2)C2=C(CC(C)(C)CC2=O)N1 (configuration not stated)
Response: YES

Prompt: Hi, do you know how CCOC(=O)C1=C(N)Oc2ccc(Cl)cc2C1C(C#N)C(=O)OCC (configuration not stated) came out in this test?
Response: NO

Prompt: Could you please tell me the result logged for COc1ccc(C2=Nn3c(nnc3-c3cc(OC)cc(OC)c3)SC2)cc1 in this assay?
Response: NO

Prompt: Record request — test call for O=C(c1cc(O)c(O)c([N+](=O)[O-])c1)c1ccccc1F
Response: YES

Prompt: Which outcome was entered for the compound Fc1cc(Nc2nc(-c3ccncc3)nc3ccccc23)ccc1N1CCCCC1 in this test?
Response: YES

Prompt: So what was the verdict on N#Cc1ccc(C(=O)N2CCC3(CC2)N=C(N)c2c(F)ccc(F)c2N3)cn1 in this test?
Response: NO

Prompt: Please share the test call associated with COc1ccccc1-c1no[n+]([O-])c1C#N .
Response: NO

Prompt: What did this assay record as the result for O=C(O)Cc1ccc(O)c(O)c1 ?
Response: YES

Prompt: Can you look up the reported call for C=C1C(=O)O[C@H]2C[C@@H](C)[C@@H]3CCC(=O)[C@@]3(C)C[C@H]12 for me?
Response: NO

---

# Assay Method Text: BET inhibitor-based combinations targeting novel dependencies in MECOM-rearranged (r) AML: MV-4-11 cell line (AID 2202233); further: nearly all actives have a fitted effect of over 45% in size; further: potency means the concentration at half of the fitted maximal effect
# Experimental Parameters: MV-4-11 AML viability, CellTiter-Glo luminescence, 48 h; series mostly up to 46 µM
Inconclusive results are not listed. Active and inactive are the calls of the source. The call rests on the fitted dose curve; in most records, active means well fitted inhibition curve with a large enough effect; inconclusive means small, poorly fitted or top-dose-only effect; inactive means no such curve, though single readings can be large or run the other way.
Readout Label: Potency

| Compound | Reported Measurement |
| --- | --- |
| O[C@@H](COc1cccc2ncccc12)CN1CCN(C2c3ccccc3[C@@H]3[C@H](c4ccccc42)C3(F)F)CC1 (stereo partly drawn) | 18.6 µM (active) |
| CC(=O)[C@H]1CC[C@H]2[C@@H]3CC=C4C[C@@H](O)CC[C@]4(C)[C@H]3CC[C@]12C | inactive |
| Cc1cc2c(F)c(Oc3ncnn4cc(OCC(C)OC(=O)C(C)N)c(C)c34)ccc2[nH]1 (stereo not drawn) | 11.8 µM (active) |
| O=c1ncn2nc(Sc3ccc(F)cc3F)ccc2c1-c1c(Cl)cccc1Cl | 20.9 µM (active) |

Reported Potency of C[C@]12CC[C@@H]3c4ccc(O)cc4C[C@@H](CCCCCCCCCS(=O)CCCC(F)(F)C(F)(F)F)[C@H]3[C@H]1CC[C@H]2O (stereo partly drawn) : 9.34 µM (active)

Potency for CCNC(=O)C#Cc1ccc2c(C(=Nc3ccc(CN(C)C)cc3)c3ccccc3)c(O)[nH]c2c1 is 0.0645 µM (active)

Kindly note the recorded Potency for Cc1ccn(-c2ccc(-c3ncco3)cc2)c(=O)c1-c1ccc2nc(N)ncc2c1 , which is 6.61 µM (active)

// Potency value for CCOc1cc(C(=O)Nc2ccc(Cl)c(-c3nc4ccccc4[nH]3)c2)cc(OCC)c1OCC : 16.6 µM (active)
